- test.target: T1, His-human LIGHT (human)
- T1 construct: also called His-huLIGHT; free LIGHT
- T1 chain: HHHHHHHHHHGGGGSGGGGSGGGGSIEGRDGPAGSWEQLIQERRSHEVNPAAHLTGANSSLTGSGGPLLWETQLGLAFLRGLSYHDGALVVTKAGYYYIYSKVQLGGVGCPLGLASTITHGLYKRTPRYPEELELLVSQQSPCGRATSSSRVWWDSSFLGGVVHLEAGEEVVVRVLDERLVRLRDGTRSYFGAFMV
- assay.protocol: SPR, Biacore 8K, antibody on CM5 chip, human LIGHT
readout.label: kon
Give me the value, and tack the unit on after it.

// worked examples, kon included
hum_LT-m37-6 (antibody, human IgG4, V domains shown, humanized from LT-m37) VH: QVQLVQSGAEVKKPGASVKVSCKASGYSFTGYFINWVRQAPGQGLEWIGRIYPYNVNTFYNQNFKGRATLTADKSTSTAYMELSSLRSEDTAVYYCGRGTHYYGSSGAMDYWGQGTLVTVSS VL: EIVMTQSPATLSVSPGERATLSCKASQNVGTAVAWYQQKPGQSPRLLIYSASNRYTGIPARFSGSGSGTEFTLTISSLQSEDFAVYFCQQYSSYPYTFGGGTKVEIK
1.29e+06 M⁻¹ s⁻¹
hum_LT-m37-8 (antibody, human IgG4, V domains shown, humanized from LT-m37) VH: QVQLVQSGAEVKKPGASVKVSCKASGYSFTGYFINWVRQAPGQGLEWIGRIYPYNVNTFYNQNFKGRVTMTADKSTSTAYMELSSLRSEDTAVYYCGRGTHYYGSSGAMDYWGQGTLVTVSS VL: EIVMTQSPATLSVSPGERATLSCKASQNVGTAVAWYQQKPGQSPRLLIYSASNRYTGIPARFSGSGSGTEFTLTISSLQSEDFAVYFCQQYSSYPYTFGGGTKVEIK
1.28e+06 M⁻¹ s⁻¹

// switching to the query binder
Query block: Could you tell me which kon is on file for hum_LT-m37-7 (antibody, human IgG4, V domains shown, humanized from LT-m37) VH: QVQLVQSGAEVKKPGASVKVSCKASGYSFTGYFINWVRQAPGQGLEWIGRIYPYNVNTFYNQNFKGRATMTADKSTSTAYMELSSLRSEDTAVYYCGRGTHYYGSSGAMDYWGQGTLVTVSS VL: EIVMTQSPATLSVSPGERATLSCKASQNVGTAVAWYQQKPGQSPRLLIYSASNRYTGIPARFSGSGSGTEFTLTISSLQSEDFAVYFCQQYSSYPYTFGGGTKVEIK ?
Result block: 1.3e+06 M⁻¹ s⁻¹
